biological target: T1, ZAP-70 tandem SH2 domain R192A (1-256); experiment: ITC; Malvern PEAQ-ITC, 20 °C; C-SH2 mutant tSH2 (R192A, printed R190A in the methods) in 20 mM Hepes pH 8.2, 150 mM NaCl, 5 mM β-mercaptoethanol; titrated with 300 μM peptide; one-site binding model; constant printed under the column Kd2; details: both partners purified
T1 construct: numbers count on: PDB 2OQ1 (holo-tSH2 structure); also called tSH2 R192A; C-SH2 domain mutant; source: E. coli BL21(DE3), purified (Ni-NTA, Q column, gel filtration)
Where no end group is shown, it is not given here. [ ]: non-standard residue; d: D form. pY = N[C@@H](Cc1ccc(OP(=O)(O)O)cc1)C(=O)O
measurement_type: pKd
Answers are plain numbers, as −log10 of the molar value.

Request: Fill in reported pKd for this entry: DGL[pY]QGLSTATKDT[pY]DALH [doubly-phosphorylated ITAM-ζ3 peptide]
Response: 4.92
